Origin of the recorded values: ChEMBL document CHEMBL1201862

# Tested on: RXF 393
# TEST SUMMARY: NCI tumour cell line growth inhibition, 48 h
Active and inactive are the calls of the source. Cut-off read from the data, not from the text of the source: active = GI50 up to about 1.1 µM and inactive = higher.
ENDPOINT LABEL: GI50

[
  {
    "COMPOUND": "CN1C(=O)C(Cl)(C(Cl)(Cl)S(=O)(=O)O)C(=O)c2ccccc21.c1ccncc1 (stereo not given)",
    "GI50": "53.7 µM (inactive)"
  },
  {
    "COMPOUND": "O=S(=O)(N/C(=N\\O)Nc1ccc(Cl)cc1)c1ccccc1",
    "GI50": "2.77 µM (inactive)"
  }
]

For every item in the list below, what is its measured GI50?
1. CC1=C(C)C(=O)OC(C(C)(O)C2(O)CC3OC34C3CC(O)C56OC5C=CC(=O)C6(C)C3CCC42C)C1 (stereo not given)
2. CSc1nnc(SCc2nn3c(=O)cc(C)nc3s2)s1
3. Cc1ccc(S(=O)(=O)NC(=O)C2(Br)S(=O)(=O)OCCOS2(=O)=O)cc1
4. Cn1c(=O)c2nc(/N=N/Nc3nncs3)[nH]c2n(C)c1=O
5. CCN(CC)c1ccc2c(c1)N=C1N=CC=CN1C2(c1ccc(N(C)C)cc1)c1ccc(N(C)C)cc1
6. Cn1c(=O)c2ccccc2[n+]2c(-c3cccc([N+](=O)[O-])c3)csc12
7. CCc1nc2ccccc2c(=O)n1/N=C(\N=N\c1ccc(Cl)cc1)c1ccccc1
8. CN(C)c1ccc(/C=C(\NC(=O)c2ccccc2)C(=O)NC(CC(=O)O)C(=O)O)cc1 (stereo not given)

["2.4 µM (inactive)", "66.8 µM (inactive)", "> 100 µM (inactive)", "> 100 µM (inactive)", "8.57 µM (inactive)", "43.4 µM (inactive)", "14.2 µM (inactive)", "> 100 µM (inactive)"]
